# Assay notes: chemical genetic growth profiling, strain panel (AID 1159580);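 note: tested at 20 µM; growth read once vehicle control cultures reached saturation at 30 °C; 1 = growth at the plate median or of vehicle wells; lower values mean less growth of the strain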
# Measurement context: S. cerevisiae deletion strains, growth OD, locus YGL167C, strain pmr1, stronger effect = lower value
Hit rate of the full screen: of about 5,500 compounds, about 2,000 (36%) were called active. Another 18% or so got no clear call; they are omitted. Some of the results follow.
Assign normalized growth to each entry below.

Answered cases to consult:
O=C(/C=C/c1ccccc1)c1ccc(O)cc1; 0.83 (active)
CN(C)CCC=C1c2ccccc2C=Cc2ccccc21; 0.976 (inactive)
COc1ccc(C(=O)/C=C/c2ccccc2)cc1; 0.971 (inactive)
COc1c(O)cc2c(-c3ccccc3)cc(=O)oc2c1OC; 0.971 (inactive)
CC(C)=CCc1c2c(c(O)c3c(=O)c(O)c(-c4ccccc4)oc13)C=CC(C)(C)O2; 0.996 (inactive)
CCCCOc1cc(CC2CNC(=O)N2)ccc1OC (configuration not stated); 1 (inactive)

Go through the list and state normalized growth for each entry.
1. OC1C(O)C(O)C(O)C(O)C1O (configuration not stated)
2. COc1c(O)cccc1O
3. CC(=O)Oc1c(-c2ccccc2)oc2c(CC=C(C)C)c3c(c(OC(C)=O)c2c1=O)C=CC(C)(C)O3
4. CN(C)CCC=C1c2ccccc2CCc2ccccc21
5. NCC(=O)CCC(=O)O
6. CC[N+]1(C)CCCC(OC(=O)C(O)(c2ccccc2)c2ccccc2)C1 (configuration not stated)

Result string:
1: 1 (inactive); 2: 1.03 (inactive); 3: 0.993 (inactive); 4: 0.995 (inactive); 5: 0.974 (inactive); 6: 1.03 (inactive)

====

# Assay notes: chemical genetic growth profiling, strain panel (AID 1159580)
# Measurement context: S. cerevisiae deletion strains, growth OD, locus YFR019W, strain FAB1, stronger effect = lower value
Hit rate of the full screen: of about 5,500 compounds, about 2,000 (36%) were called active. Inconclusive results (about 18%) are left out. This is one part of the list.
Assign normalized growth to each entry below.
Numbers only.

Go through the list and state normalized growth for each entry.
1. O=C(NNC(=O)c1csc(-c2cccs2)n1)c1ccc(C(F)(F)F)cc1
2. Cc1cc(C(=O)N(c2ccccc2)C(C)C2CC2)c(Cl)cc1Cl (stereo unspecified)
3. N#CCC(=O)c1cccc(CSc2ccccc2Cl)c1
4. O=C1c2ccccc2O[C@@H](c2ccccc2)[C@@H]1NCc1ccccc1
5. O=C1c2ccccc2O[C@@H](c2ccccc2)[C@@H]1NC1CCCCC1

Result string:
0.99
0.968
0.31
0.894
0.889

Query string: Need normalized growth of "O=C(NCc1cccs1)c1csc(Cc2c(Cl)cccc2Cl)n1" , thanks.
Result string: 0.988

====

Assign normalized growth to each entry below.
# Assay notes: chemical genetic growth profiling, strain panel (AID 1159580)
# Measurement context: S. cerevisiae deletion strains, growth OD, locus YEL037C, strain rad23, stronger effect = lower value
Hit rate of the full screen: of about 5,500 compounds, about 2,000 (36%) were called active. About 18% were inconclusive and are not listed. Some of the results follow.

Answered cases to consult:
NC(=O)CC[C@@H](N)C(=O)O; 1.03 (inactive)
CC(=O)CC(c1ccccc1)c1c(O)c2ccccc2oc1=O (configuration not stated); 0.999 (inactive)
COc1cc2c(cc1OC)-c1cc3ccc(OC)c(OC)c3c[n+]1CC2; 0.987 (inactive)
O=C1CCc2cc(OCCCCc3nnnn3C3CCCCC3)ccc2N1; 0.999 (inactive)
CC(=O)Nc1ccc(O)cc1; 1.02 (inactive)

Go through the list and state normalized growth for each entry.
1. O=c1oc2ccccc2c(O)c1Cc1c(O)c2ccccc2oc1=O
2. Nc1nnc(-c2cccc(Cl)c2Cl)c(N)n1
3. CC1=CCc2c(cc3oc(C)cc(=O)c3c2O)OC1

Result string:
1.03 (inactive)
1.01 (inactive)
0.96 (inactive)

Go through the list and state normalized growth for each entry.
1. COc1cc2cc[n+]3cc4c(OC)c(OC)ccc4cc3c2cc1OC
2. CN(N=O)C(=O)N[C@@H]1[C@@H](O)[C@H](O)[C@@H](CO)O[C@@H]1O
3. COc1c2c(cc3c1OCO3)CC[N+](C)=C2
4. O=C(O)c1cc(=O)c2ccccc2o1

Result string:
1. 0.967 (inactive)
2. 0.986 (inactive)
3. 0.986 (inactive)
4. 0.973 (inactive)

====

# Assay notes: chemical genetic growth profiling, strain panel (AID 1159580);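 note: tested at 20 µM; growth read once vehicle control cultures reached saturation at 30 °C; 1 = growth at the plate median or of vehicle wells; lower values mean less growth of the strain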
# Measurement context: S. cerevisiae deletion strains, growth OD, locus YGR252W, strain gcn5, stronger effect = lower value
In all, about 5,500 compounds went through this assay and about 2,000 (36%) were called active. Inconclusive results (about 18%) are left out. Some of the results follow.
Assign normalized growth to each entry below.
Numbers only.

C[N+]1(CCCCC[N+]2(C)CCCC2)CCCC1; 1
CC1=CCc2c(cc3oc(C)cc(=O)c3c2O)OC1; 0.741
CCC/C=C/C=C/[C@@H]1C[C@@H](O)[C@@H](O)C(=O)[C@H]1C=O; 1.16
Nc1nc(N)c2nc(-c3ccccc3)c(N)nc2n1; 0.939
CCN(CC)CCNc1ccc(CO)c2sc3ccccc3c(=O)c12; 0.918

Go through the list and state normalized growth for each entry.
1. COc1cc([C@@H]2c3cc4c(cc3C(O[C@@H]3O[C@@H]5CO[C@@H](c6cccs6)OC5[C@H](O)[C@H]3O)C3COC(=O)[C@@H]32)OCO4)cc(OC)c1O (stereo not given in full)
2. Cc1cc(=O)c2c(o1)-c1c(cc(O)c(O)c1C(=O)O)OC2

Result string:
1.03
0.997

Go through the list and state normalized growth for each entry.
1. Cn1nnnc1SCC1=C(C(=O)O)N2C(=O)C(NC(=O)C(O)c3ccccc3)C2SC1 (stereo not given)
2. Cc1cc(=O)c2c(O)c3c(cc2o1)OCC(C)CC3 (stereo not given)
3. O=c1c2ccccc2[se]n1-c1ccccc1

Result string:
1: 0.972; 2: 0.689; 3: 0.162

====

# Assay notes: chemical genetic growth profiling, strain panel (AID 1159580);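 note: tested at 20 µM; growth read once vehicle control cultures reached saturation at 30 °C; 1 = growth at the plate median or of vehicle wells; lower values mean less growth of the strain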
# Measurement context: S. cerevisiae deletion strains, growth OD, locus YDR054C, strain cdc34, stronger effect = lower value
About 2,000 (36%) of roughly 5,500 compounds were called active. Roughly 18% stayed inconclusive and do not appear here. The list shows a part of the results.
Measured quantity: normalized growth
Numbers only.

Answered cases to consult:
O=C1Nc2ccccc2/C1=N/N=C\c1ccccc1Cl; 0.97
O=C1c2ccccc2O[C@@H](c2ccccc2)[C@@H]1NCc1ccccc1; 0.879
Cc1cc(C(=O)N(c2ccccc2)C(C)C2CC2)c(Cl)cc1Cl (centres undefined); 0.966
CC(C)(C)c1csc(NC(=O)Nc2ccc(Cl)cc2)n1; 0.974
CCn1nc(C)cc1-c1nnc(Sc2ncc([N+](=O)[O-])s2)n1C; 0.975
O=C(NCc1cccs1)c1csc(Cc2c(Cl)cccc2Cl)n1; 0.971
Cc1csc2ncnc(N/N=C\c3ccccc3Cl)c12; 0.952
Cc1nc(-c2ccc(C(F)(F)F)cn2)[nH]c(=O)c1Cl; 0.887
Clc1ccc(-c2csc(Nc3ccccc3)n2)s1; 0.907
C/C(=N/Nc1nc(C(C)(C)C)cs1)c1ccc(Cl)c(Cl)c1; 0.978

Go through the list and state normalized growth for each entry.
1. O=C1Nc2ccccc2/C1=N/N=C\c1cc(Br)cc(Br)c1O
2. Clc1ccccc1N/N=C\Cc1nnnn1-c1ccccc1
3. CC(C)(C)c1csc(NC(=O)c2ccc(Cl)cc2Cl)n1
4. N#Cc1c(Br)cnn1Cc1cc(C(F)(F)F)cc(C(F)(F)F)c1

Result string:
0.916
0.96
0.961
0.989

====

# Assay notes: chemical genetic growth profiling, strain panel (AID 1159580);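 note: tested at 20 µM; growth read once vehicle control cultures reached saturation at 30 °C; 1 = growth at the plate median or of vehicle wells; lower values mean less growth of the strain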
# Measurement context: S. cerevisiae deletion strains, growth OD, locus YJL092W, strain hpr5
Out of some 5,500 compounds screened, about 2,000 (36%) were called active. Another 18% or so got no clear call; they are omitted. Cut-off read from the data, not from the text of the source: active = normalized growth mostly below about 0.91 (no sharp cut-off); inconclusive = no clear call, values can overlap the other calls; inactive = mostly above about 0.92. The list shows a part of the results.
Would you mind answering with one of these outcomes? true (1) for active, false (0) for inactive

CC(=O)Oc1c(-c2ccccc2)oc2c(CC=C(C)C)c3c(c(OC(C)=O)c2c1=O)C=CC(C)(C)O3; false (0)
CC(C)(Oc1ccc(Cl)cc1)C(=O)O; false (0)

Query string: Tell me the recorded outcome of this test for "COc1ccc(-c2cc(=O)c3ccccc3o2)cc1OC" .
Result string: false (0)

Query string: Tell me the recorded outcome of this test for "CC(C)=CCc1c2c(c(O)c3c(=O)c(O)c(-c4ccccc4)oc13)C=CC(C)(C)O2" .
Result string: true (1)

Query string: Tell me the recorded outcome of this test for "C[n+]1cc2c3c(ccc2c2ccc4cc5c(cc4c21)OCO5)OCO3" .
Result string: true (1)

Query string: Tell me the recorded outcome of this test for "CCCCCCCCCc1ccc(O)cc1" .
Result string: true (1)

Query string: Tell me the recorded outcome of this test for "COc1ccc2cc3[n+](cc2c1OC)CCc1cc2c(cc1-3)OCO2" .
Result string: false (0)

Query string: Tell me the recorded outcome of this test for C=C1C(N)CC2CC1C2(C)C (centres undefined) .
Result string: false (0)

Recorded values, source PubChem BioAssay AID1159580.
